# study.target: NEDD8 activating enzyme (Homo sapiens, UniProt Q8TBC4)
# Sequence (Q8TBC4 whole entry): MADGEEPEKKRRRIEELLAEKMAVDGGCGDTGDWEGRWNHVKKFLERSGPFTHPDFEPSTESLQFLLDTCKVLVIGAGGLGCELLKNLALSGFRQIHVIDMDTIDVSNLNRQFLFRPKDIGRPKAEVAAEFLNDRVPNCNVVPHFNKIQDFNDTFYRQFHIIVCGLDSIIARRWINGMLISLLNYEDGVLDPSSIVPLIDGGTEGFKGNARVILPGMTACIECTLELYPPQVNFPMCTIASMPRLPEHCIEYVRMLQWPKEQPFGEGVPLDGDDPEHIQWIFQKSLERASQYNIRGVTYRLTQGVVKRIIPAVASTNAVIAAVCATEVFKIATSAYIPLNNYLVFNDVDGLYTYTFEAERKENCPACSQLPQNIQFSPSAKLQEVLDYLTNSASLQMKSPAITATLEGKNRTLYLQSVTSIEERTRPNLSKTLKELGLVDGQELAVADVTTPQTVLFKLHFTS
# Sequence (Q13564 whole entry, further chain): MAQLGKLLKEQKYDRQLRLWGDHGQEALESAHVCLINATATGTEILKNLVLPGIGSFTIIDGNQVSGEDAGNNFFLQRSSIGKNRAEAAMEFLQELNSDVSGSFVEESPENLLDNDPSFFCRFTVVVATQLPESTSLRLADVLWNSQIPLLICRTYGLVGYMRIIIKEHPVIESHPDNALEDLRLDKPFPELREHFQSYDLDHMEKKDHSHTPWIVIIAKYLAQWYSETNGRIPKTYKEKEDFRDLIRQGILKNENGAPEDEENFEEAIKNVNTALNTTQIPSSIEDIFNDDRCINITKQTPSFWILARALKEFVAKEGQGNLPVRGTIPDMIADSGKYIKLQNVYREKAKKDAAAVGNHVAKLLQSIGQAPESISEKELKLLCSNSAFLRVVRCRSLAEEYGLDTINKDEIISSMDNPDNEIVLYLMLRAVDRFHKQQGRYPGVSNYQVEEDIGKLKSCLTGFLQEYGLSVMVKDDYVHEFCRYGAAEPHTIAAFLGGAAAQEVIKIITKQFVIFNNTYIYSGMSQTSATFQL
# test.protocol: Inhibition of recombinant human NAEalpha/N-terminal His-tagged NAEbeta expressed in baculovirus infected insect Sf9 cells using N-terminal FLAG tagged Nedd8 as substrate incubated for 105 mins in presence of N-terminal GST-tagged Ubc12 by FRET assay
reported.metric: IC50

NS(=O)(=O)OC[C@@H]1C[C@@H](Oc2cc(N[C@H]3CCc4ccccc43)ncn2)C[C@@H]1O | ≤ 500 nM
CO[C@@H]1CC(C)(C)c2ccccc2[C@@H]1Nc1cc(O[C@@H]2C[C@@H](COS(N)(=O)=O)[C@@H](O)C2)ncn1 | ≤ 500 nM

Value sought for every listed molecule: IC50.
1. Cc1nc(NCc2ccccc2)cc(N[C@@H]2C[C@H](COS(N)(=O)=O)[C@@H](O)[C@H]2O)n1
2. NS(=O)(=O)OC[C@@H]1C[C@@H](Oc2cc(OCc3ccc(Cl)cc3)ncn2)C[C@@H]1O
3. CO[C@H]1Cc2ccccc2[C@H]1Nc1cc(O[C@@H]2C[C@@H](CNS(N)(=O)=O)[C@@H](O)C2)ncn1
4. NS(=O)(=O)OCC1C[C@@H](Nc2ncnc3[nH]c(C4CCCc5ccccc54)nc23)C[C@@H]1O (single isomer, unassigned)

1: > 10000 nM; 2: > 10000 nM; 3: ≤ 500 nM; 4: ≤ 500 nM

Value sought for every listed molecule: IC50.
1. NS(=O)(=O)OC[C@@H]1C[C@@H](Nc2c(Cl)cnc3[nH]c(-c4cccc5ccccc45)nc23)C[C@@H]1O
2. CN(C)C(=O)[C@H]1Cc2ccccc2[C@H]1Nc1cc(O[C@@H]2C[C@@H](COS(N)(=O)=O)[C@@H](O)C2)ncn1
3. NS(=O)(=O)OC[C@@H]1C[C@@H](Nc2ncnc(N[C@H]3CCc4ccccc43)n2)C[C@@H]1O
4. NS(=O)(=O)OC[C@@H]1C[C@@H](Nc2ncnc3[nH]c(C4CCCCC4)nc23)C[C@@H]1O
5. NS(=O)(=O)OC[C@@H]1C[C@@H](Nc2ncnc3[nH]c(-c4ccccc4)nc23)C[C@@H]1O
6. NS(=O)(=O)OC[C@@H]1C[C@@H](Nc2ncnc3oc(-c4ccccc4)nc23)C[C@@H]1O

1. ≤ 500 nM
2. 500 to 10000 nM
3. ≤ 500 nM
4. ≤ 500 nM
5. ≤ 500 nM
6. ≤ 500 nM

Value sought for every listed molecule: IC50.
1. NS(=O)(=O)OC[C@@H]1C[C@@H](Nc2ncnc3[nH]c(-c4cccc5ccccc45)nc23)C[C@@H]1O
2. COc1cccc(-c2nc3c(N[C@@H]4C[C@@H](COS(N)(=O)=O)[C@@H](O)C4)ncnc3[nH]2)c1
3. NS(=O)(=O)OC[C@@H]1C[C@@H](Oc2cc(NC3CCCC3)ncn2)C[C@@H]1O
4. CO[C@@H]1Cc2ccccc2[C@@H]1Oc1cc(O[C@@H]2C[C@@H](COS(N)(=O)=O)[C@@H](O)C2)ncn1

≤ 500 nM
≤ 500 nM
500 to 10000 nM
500 to 10000 nM
